# target or system: Protein kinase C alpha type (Homo sapiens, UniProt P17252)
# test details: Inhibition of Protein kinase C alpha expressed in Sf-9 cells
quantity name: pIC50
Note: pIC50 values are expressed as the negative base-10 logarithm of concentration in M.

So what pIC50 did "CC(C)(C)C(=O)OCOC(=O)c1cccc(O)c1C(=O)c1c(O)cc(C(=O)O[C@@H]2CNC[C@H]2NC(=O)c2ccc(O)cc2)cc1O" get with Protein kinase C alpha type (Homo sapiens, UniProt P17252)?
6.80

Similarly, "CCOC(=O)c1cccc(O)c1C(=O)c1c(O)cc(C(=O)O[C@@H]2CCC[C@H]2NC(=O)c2ccc(O)cc2)cc1O" ?
6.04

Also need "CCOC(=O)c1cccc(O)c1C(=O)c1c(O)cc(C(=O)O[C@@H]2CNC[C@H]2NC(=O)c2ccc(O)cc2)cc1O" , thanks.
5.66

Ok, now "CC(=O)OCOC(=O)c1cccc(O)c1C(=O)c1c(O)cc(C(=O)O[C@@H]2CNC[C@H]2NC(=O)c2ccc(O)cc2)cc1O"
6.89

What do we get for "COC(=O)c1cccc(O)c1C(=O)c1c(O)cc(C(=O)O[C@@H]2CNC[C@H]2NC(=O)c2ccc(O)cc2)cc1O" ?
6.60

Please do the same for COC(=O)c1cccc(O)c1C(=O)c1c(O)cc(C(=O)O[C@@H]2CCC[C@H]2NC(=O)c2ccc(O)cc2)cc1O (stereo in doubt; 8 (+)) as well.
5.38

How about COC(=O)c1cccc(O)c1C(=O)c1c(O)cc(C(=O)O[C@@H]2CCC[C@H]2NC(=O)c2ccc(O)cc2)cc1O (stereo in doubt; 8 (-)) ?
6.68

Repeat with "CC(C)OC(=O)c1cccc(O)c1C(=O)c1c(O)cc(C(=O)O[C@@H]2CCC[C@H]2NC(=O)c2ccc(O)cc2)cc1O"
5.33

What about this compound? "O=C(N[C@@H]1CNC[C@H]1OC(=O)c1cc(O)c(C(=O)c2c(O)cccc2C(=O)OCC2CCCCC2)c(O)c1)c1ccc(O)cc1"
4.77

Try this compound next: COC(=O)c1cccc(O)c1C(=O)c1c(O)cc(C(=O)O[C@@H]2CCC[C@H]2NC(=O)c2ccc(O)cc2)cc1O (racemic)
6.49

Now the same for "CC(C)COC(=O)c1cccc(O)c1C(=O)c1c(O)cc(C(=O)O[C@@H]2CNC[C@H]2NC(=O)c2ccc(O)cc2)cc1O"
4.72

Now give it for "CCCCOC(=O)c1cccc(O)c1C(=O)c1c(O)cc(C(=O)O[C@@H]2CNC[C@H]2NC(=O)c2ccc(O)cc2)cc1O" too.
5.51

The origin of these recorded values is ChEMBL document CHEMBL1128824.
